Tested On: PSMA-expressing C4-2 cells (Homo sapiens)
Construct: PSMA-expressing C4-2 cells (ATCC, Cat. No. CRL-3314) were cultured in RPMI-1640; host or cells: C4-2 cells
Sequence (Q04609 whole entry): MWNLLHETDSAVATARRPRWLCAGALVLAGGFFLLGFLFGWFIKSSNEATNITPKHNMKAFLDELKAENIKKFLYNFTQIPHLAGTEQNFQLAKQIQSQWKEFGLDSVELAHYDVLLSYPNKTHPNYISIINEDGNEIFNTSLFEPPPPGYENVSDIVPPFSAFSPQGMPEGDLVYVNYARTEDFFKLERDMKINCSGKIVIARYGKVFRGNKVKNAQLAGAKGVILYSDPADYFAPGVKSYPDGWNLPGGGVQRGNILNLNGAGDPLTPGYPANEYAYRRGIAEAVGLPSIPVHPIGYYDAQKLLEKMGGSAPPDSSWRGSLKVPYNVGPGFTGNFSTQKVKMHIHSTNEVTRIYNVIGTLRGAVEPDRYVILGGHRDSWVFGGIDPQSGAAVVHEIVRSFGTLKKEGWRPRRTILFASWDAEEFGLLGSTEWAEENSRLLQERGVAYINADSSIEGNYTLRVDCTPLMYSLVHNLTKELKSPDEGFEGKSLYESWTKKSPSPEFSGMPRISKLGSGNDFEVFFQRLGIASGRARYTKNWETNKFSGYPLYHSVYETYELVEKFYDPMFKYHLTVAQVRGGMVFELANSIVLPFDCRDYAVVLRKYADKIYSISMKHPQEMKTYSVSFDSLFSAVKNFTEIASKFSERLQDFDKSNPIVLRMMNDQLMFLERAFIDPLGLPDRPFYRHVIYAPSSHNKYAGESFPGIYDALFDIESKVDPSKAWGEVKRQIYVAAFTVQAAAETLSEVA
Procedure Text: FACS binding assay (competition with 50 nM PSM-0183)
Condition Description: pIC50 category of FACS binding, C4-2 cells; read-out: pIC50 [C4-2] CAT (converted)
Experimental: In order to determine binding of compounds according to the present invention to PSMA-expressing cells, a FACS binding assay was established. PSMA-expressing C4-2 cells (ATCC, Cat. No. CRL-3314) were cultured in RPMI-1640 (Pan Biotech, Cat. No. P04-18050) including 10% fetal calf serum (Biochrom) and 100 U/ml penicillin and 100 μg/mL streptomycin (Sigma, Cat. No. P0781). […]
Numbered stars: 1 amine (or outer) side, 2 acyl side, 3 side chain; on linkers, the order of the positions; unused ones are H or OH. Bridge positions count the residues as written; N and C are the ends. Square brackets hold non-standard residues; d marks the D form. Peptide text beside a SMILES is read from it. * marks the point of attachment. DOTA = O=C(O)CN1CCN(CC(=O)O)CCN(CC(=O)*)CCN(CC(=O)O)CC1; X6 = O=C(CN1CCN([*:1])CC1)[*:2]; Tle = CC(C)(C)[C@H](N)C(=O)O; Aib = CC(C)(N)C(=O)O
Assay Readout: IC50

Recorded results for 2 compounds are shown here.
Compound: C=C1N[C@@H](CCCCN)C(=O)N[C@@H](CCCNC(=N)N)C(=O)NC(C)(C)C(=O)N[C@@H](CC(N)=O)C(=O)N[C@H](C(=O)N[C@H](C(=O)N[C@H](C(=O)NCCOCCOCC(=O)N[C@H](CCCCNC(=O)CN2CCN(CC(=O)O)CCN(CC(=O)O)CCN(CC(=O)O)CC2)C(N)=O)[C@@H](C)O)C(C)(C)C)CSSC[C@@H]1NC(=O)[C@H](Cc1ccccc1)NC(=O)C(C)(C)NC(=O)[C@@H](NC(C)=O)[C@@H](C)O
Assay Readout: IC50
Result: < 200 nM

Compound: C[C@@H](O)[C@H](NC(=O)[C@@H](NC(=O)[C@@H]1CSSC[C@H](NC(=O)[C@H](Cc2ccccc2)NC(=O)C(C)(C)NC(=O)CN2CCN(C(=O)CN3CCN(CC(=O)O)CCN(CC(=O)O)CCN(CC(=O)O)CC3)CC2)C(=O)N[C@@H](CCCCN)C(=O)N[C@@H](CCCNC(=N)N)C(=O)NC(C)(C)C(=O)N[C@@H](CC(N)=O)C(=O)N1)C(C)(C)C)C(N)=O [PSM-0413] ({DOTA}-[X6][Aib]FCKR[Aib]NC[Tle]T-NH2; disulfide 4-9)
Assay Readout: IC50
Result: < 200 nM

Could you now consider this next compound?
Supply IC50 measured with PSMA-expressing C4-2 cells (Homo sapiens) for CC(=O)N[C@H](C(=O)NC(C)(C)C(=O)N[C@@H](Cc1ccccc1)C(=O)N[C@H]1CSSC[C@@H](C(=O)N[C@H](C(=O)N[C@@H](Cc2c[nH]c3ccccc23)C(N)=O)C(C)(C)C)NC(=O)[C@H](CC(N)=O)NC(=O)C(C)(C)NC(=O)[C@H](CCCNC(=N)N)NC(=O)[C@H](CCCCN)NC1=O)[C@@H](C)O [PSM-0376] (Ac-T[Aib]FCKR[Aib]NC[Tle]W-NH2; disulfide 4-9) . < 200 nM
